target: SARS-CoV-2 3CL^pro (Severe acute respiratory syndrome coronavirus 2 (2019-nCoV) (SARS-CoV-2), UniProt P0DTD1); assay: 3CL^pro inhibitory activity test (fluorescence resonance energy transfer); type: biochemical; details: FRET; read-out: IC50 values

COMPOUND	IC50
Cn1cc2cc(/N=c3\[nH]c(=O)n(Cc4cn(CCCCCC(=O)Nc5cccc6c5CN(C5CCC(=O)NC5=O)C6=O)nn4)c(=O)n3Cc3cc(F)c(F)cc3F)c(Cl)cc2n1 (stereo not shown)	< 100 nM

---

molecular target: SARS-CoV-2 3CL^pro (Severe acute respiratory syndrome coronavirus 2 (2019-nCoV) (SARS-CoV-2)); assay type: cell-based; conditions: HEK293E cells transfected with 3CL^pro plasmid, 24 h treatment, Western Blot; read-out: DC50
# maps each entry to its DC50
MEASUREMENT KIND: DC50

COMPOUND	MEASUREMENT KIND	MEASURED VALUE
Cn1cc2cc(/N=c3\[nH]c(=O)n(Cc4cn(CCCCCC(=O)Nc5cccc6c5CN(C5CCC(=O)NC5=O)C6=O)nn4)c(=O)n3Cc3cc(F)c(F)cc3F)c(Cl)cc2n1 (stereo not shown) [Compound 4]	DC50	< 100 nM
Cn1cc2cc(/N=c3\[nH]c(=O)n(Cc4cn(CCC(=O)Nc5cccc6c5C(=O)N(C5CCC(=O)NC5=O)C6=O)nn4)c(=O)n3Cc3cc(F)c(F)cc3F)c(Cl)cc2n1 (stereo not shown) [Compound 7]	DC50	100 to 1000 nM
Cn1cc2cc(/N=c3\[nH]c(=O)n(Cc4cn(CCOCC(=O)Nc5cccc6c5CN(C5CCC(=O)NC5=O)C6=O)nn4)c(=O)n3Cc3cc(F)c(F)cc3F)c(Cl)cc2n1 (stereo not shown) [Compound 13]	DC50	< 100 nM
Cn1cc2cc(/N=c3\[nH]c(=O)n(Cc4cn(CCC(=O)Nc5cccc6c5CN(C5CCC(=O)NC5=O)C6=O)nn4)c(=O)n3Cc3cc(F)c(F)cc3F)c(Cl)cc2n1 (stereo not shown) [Compound 1]	DC50	100 to 1000 nM
Cn1cc2cc(/N=c3\[nH]c(=O)n(Cc4cn(CCOCCOCCOCC(=O)Nc5cccc6c5CN(C5CCC(=O)NC5=O)C6=O)nn4)c(=O)n3Cc3cc(F)c(F)cc3F)c(Cl)cc2n1 (stereo not shown) [Compound 15]	DC50	< 100 nM
Cn1cc2cc(/N=c3\[nH]c(=O)n(Cc4cn(CCOCCOCC(=O)Nc5cccc6c5C(=O)N(C5CCC(=O)NC5=O)C6=O)nn4)c(=O)n3Cc3cc(F)c(F)cc3F)c(Cl)cc2n1 (stereo not shown) [Compound 17]	DC50	< 100 nM
Cn1cc2cc(/N=c3\[nH]c(=O)n(Cc4cn(CCOCCOCC(=O)Nc5cccc6c5CN(C5CCC(=O)NC5=O)C6=O)nn4)c(=O)n3Cc3cc(F)c(F)cc3F)c(Cl)cc2n1 (stereo not shown) [Compound 14]	DC50	< 100 nM
